Attribution: ChEMBL document CHEMBL4725295

test system: Leishmania; experiment: Covalent reversible inhibition of Leishmania cysteine protease B using Z-Phe-Arg-7-amido-4-methylcoumarin as substrate incubated for 2 mins followed by substrate addition by fluorescence assay relative to control; design: concentration or dose not given beside the values
READOUT_NAME: inhibition (%)

SMI	READOUT_NAME	VALUE_REPORTED
Cc1ccc([C@H](N[C@H](Cc2ccccc2)C(=O)NC2(C#N)CC2)C(F)(F)F)cc1	inhibition	86
COc1ccc([C@@H](N[C@@H](Cc2ccccc2)C(=O)NC2(C#N)CC2)C(F)(F)F)cc1	inhibition	70
Cc1ccc([C@@H](N[C@H](Cc2ccccc2)C(=O)NC2(C#N)CC2)C(F)(F)F)cc1	inhibition	88
COc1ccc([C@@H](N[C@H](Cc2ccccc2)C(=O)NC2(C#N)CC2)C(F)(F)F)cc1	inhibition	95
COc1ccc([C@H](N[C@H](Cc2ccccc2)C(=O)NC2(C#N)CC2)C(F)(F)F)cc1	inhibition	95
